- system.tested: Mitogen-activated protein kinase 11 (Homo sapiens)
- Sequence (Q15759 whole entry): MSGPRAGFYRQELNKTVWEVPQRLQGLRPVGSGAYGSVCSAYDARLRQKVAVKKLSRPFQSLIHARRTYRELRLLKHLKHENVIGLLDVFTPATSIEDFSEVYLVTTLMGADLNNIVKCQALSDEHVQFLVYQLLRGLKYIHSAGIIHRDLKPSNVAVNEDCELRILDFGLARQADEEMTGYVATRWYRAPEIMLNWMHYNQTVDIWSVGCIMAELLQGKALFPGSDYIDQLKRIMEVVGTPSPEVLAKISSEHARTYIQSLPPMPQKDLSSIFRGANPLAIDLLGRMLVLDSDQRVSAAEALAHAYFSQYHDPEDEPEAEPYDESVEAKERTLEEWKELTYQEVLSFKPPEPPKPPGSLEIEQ
- assay.details: Inhibition of human p38 beta MAP kinase
measurement.label: IC50 (µM)
The figure you give is taken to be in µM; do not add the unit.

Assay Mitogen-activated protein kinase 11 (Homo sapiens), sample CN1CCC(O)(c2nc(-c3ccc(F)cc3)c(-c3ccncc3)o2)CC1 , IC50 read: 2.41

----------
- system.tested: Mitogen-activated protein kinase 8 (Homo sapiens, UniProt P45983)
- Sequence (P45983 whole entry): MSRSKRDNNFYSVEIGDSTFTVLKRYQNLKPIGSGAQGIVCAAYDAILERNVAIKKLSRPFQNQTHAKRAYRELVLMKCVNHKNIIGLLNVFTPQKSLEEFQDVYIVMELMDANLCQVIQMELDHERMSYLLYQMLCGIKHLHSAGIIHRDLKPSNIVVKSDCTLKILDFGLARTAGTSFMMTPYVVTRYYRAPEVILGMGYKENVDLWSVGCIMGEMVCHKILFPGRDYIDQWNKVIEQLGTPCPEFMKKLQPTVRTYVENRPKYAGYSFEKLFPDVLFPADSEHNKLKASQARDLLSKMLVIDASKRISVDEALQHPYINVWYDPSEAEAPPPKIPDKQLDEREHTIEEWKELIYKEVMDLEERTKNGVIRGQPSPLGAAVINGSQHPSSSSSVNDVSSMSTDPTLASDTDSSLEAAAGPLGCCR
- assay.details: Inhibition of JNK1 kinase
measurement.label: IC50

Given item CN1CCC(O)(c2nc(-c3ccc(F)cc3)c(-c3ccncc3)o2)CC1 , the value recorded as its IC50 is > 10 µM
